Numbers sourced from patent US20110059953A1.

Could you please report measured ΔTm (° C.) for the items listed next?
- targetDesc: T-p53C-Y220C (Homo sapiens, UniProt P04637, M133L/N239Y/N268D/V203A/Y220C)
- Construct: For all other experiments, the DNA coding for residues 94-312 of T-p53C was inserted into a modified pET24a(+) vector; 6xHis tag + B. stearothermophilus dihydrolipoyl acetyltransferase lipoyl domain (aa 1-85) + TEV site (N, cleaved yes); made in house; host or cells: Escherichia coli BL21 (DE3) or C41 (DE3)
- protocolDetails: Thermal denaturation using fluorescence (Sypro Orange)
- Format: binding
- statedConditions: further compounds; 10 μM protein
Supply the numeric figure in °C, leaving out any unit text.

Per the record, CCn1cc(C(=O)CN2CCc3ccccc3C2)c2ccccc21 [PK212] has ΔTm (° C.) of 0.387

COc1ccc2c(c1)c(C(=O)OC(C(N)=O)c1ccccc1)c(C)n2C1CC1 (stereo not drawn) [PK294] yielded ΔTm (° C.) of 0.064

Item: COc1ccc2c(c1)c(C(=O)NC(C)C(C)C)c(C)n2C1CC1 (stereo not drawn) [PK277] | ΔTm (° C.): 0.34

What the record says about CCn1c2ccccc2c2cc(NC(=O)CN3CCC(C(N)=O)CC3)ccc21 [PK151] : ΔTm (° C.) is 0.14

Sure, the documented ΔTm (° C.) for [2H]C(=O)OC(CC)C(=O)Nc1cc(C)on1 (stereo not drawn) [PK284] is 0.23

Please fill in: ΔTm (° C.) reported for CCOC(=O)/C=C/C(=O)OCC(=O)Nc1ccc2c(c1)c1ccccc1n2CC [PK113] = 0.36

Quick note, ΔTm (° C.) for CCn1c2ccccc2c2cc(NC(=O)CN(C)CC(=O)Nc3ccc(N4CCOCC4)cc3)ccc21 [PK122] landed at 0.28

Input [2H]C(=O)OC(C)c1nc(N)nc(N(C)C)n1 (stereo not drawn) [PK286] . Output ΔTm (° C.): 0.24

Per the record, CCn1cc(C(=O)Nc2ccn(C)n2)c2ccccc21 [PK318] has ΔTm (° C.) of 0.12
